Test system: NCI-H460 lung
testMethodNotes: NCI tumour cell line growth inhibition, 48 h
outcomeMeasure: TGI (µM)
Output spec: scalar in µM, unitless text.

Example results:
{"molecule": "Cc1nc(Cl)c(CBr)c(Cl)n1", "displayUnit": "µM", "measured": 8.38}
{"molecule": "OCc1c(-c2cccc3ccccc23)sc(-c2cccc3ccccc23)c1CO", "displayUnit": "µM", "measured": 34.7}

Lookup: Tell me the measured TGI of COc1cccc(C2c3cc4c(cc3OC(N3CCCC3)C2C)OCO4)c1OC (stereo not given) , please.
Found: 12.5

Lookup: Then this molecule: C[Si](C)(C)c1ccc(CC2(Cc3ccc([Si](C)(C)C)cc3)CCNC2)cc1
Found: 3.73

====

Test system: HCT-116 colon
testMethodNotes: NCI tumour cell line growth inhibition, 48 h; in the data active = GI50 below about 0.43 µM; inactive = the rest
Please answer using one outcome listed in active, inactive

Lookup: // param item: CCOC(=O)c1cc(-c2ccc([N+](=O)[O-])cc2)n(-c2ccc(C(=O)O)c(O)c2)c1C ; yields the recorded call
Found: inactive

Lookup: Then what about the molecule N#Cc1c(O)c2c(c(O)c1C#N)C(=O)c1ccccc1C2=O ?
Found: inactive

Lookup: Request: COC(=O)c1c2c(c(C)[n+]([O-])c1C)C(=O)C=CC2=O
Found: inactive

Lookup: Next molecule: Cc1c(N2C(=O)/C(=C\c3ccccc3O)N=C2c2ccccc2)c(=O)n(-c2ccccc2)n1C
Found: inactive

Lookup: Check CNC(=O)c1cc(Oc2ccc3c(c2)sc2nc(-c4ccc(N)cc4)cn23)ccn1 too.
Found: active

====

System: SF-539 CNS
testMethodNotes: NCI tumour cell line growth inhibition, 48 h
compounds and their reported log10 TGI
Please be aware that the numbers have been log10-transformed from TGI in µM.

{"compound": "CC(=O)/C=C/c1cccc(N=S)c1", "measured": 1.32}
{"compound": "CC1=C(CCCOC(=O)NCCCl)C2=C(C)C3(CC3)[C@@](C)(O)C(=O)C2=C1", "measured": 0.74}
{"compound": "C/C(=N/NC(=S)Nc1cccc(C)c1)c1ccccn1", "measured": 0.75}
{"compound": "Cc1nc(Cl)c(CBr)c(Cl)n1", "measured": 0.57}
{"compound": "OCc1c(-c2cccc3ccccc23)sc(-c2cccc3ccccc23)c1CO", "measured": 1.46}

Could you now consider this next compound?
Lookup: Quick one: log10 TGI for CC[n+]1ccc2c(c1)C(=O)c1nccc3c1c-2nc1ccccc13 ?
Found: 0.17

====

Test system: NCI-H460 lung
Answer with one of the outcomes yes (1) (active), no (0) (inactive)

Completed entries (count: 4):
{"structureSmiles": "O=C(/C=C(\\[O-])c1ccccc1)CCCCCCC(=O)/C=C(\\[O-])c1ccccc1.O=C(/C=C(\\[O-])c1ccccc1)CCCCCCC(=O)/C=C(\\[O-])c1ccccc1.O=C(/C=C(\\[O-])c1ccccc1)CCCCCCC(=O)/C=C(\\[O-])c1ccccc1.[La+3].[La+3]", "classLabel": "no (0)"}
{"structureSmiles": "CN1CCN(Cc2ccc(NC(=O)c3cncc(C#Cc4cnc(N)c5ccccc45)c3)cc2C(F)(F)F)CC1", "classLabel": "yes (1)"}
{"structureSmiles": "Fc1ccc(-c2nn(-c3ccccc3)cc2-c2nc3ccccc3o2)cc1", "classLabel": "no (0)"}
{"structureSmiles": "COc1ccc(-n2cc(-c3ccc(OC)c(OC)c3)[nH]c2=S)cc1Cl", "classLabel": "no (0)"}

Lookup: Fill in: this test's call for COc1ccc(CNC(=O)COc2ccc(/C=N/Nc3nc4ccccc4s3)cc2)cc1 is ___
Found: no (0)

Lookup: Here is the next molecule: CCN1CCN(c2nc(NCCNc3ccnc4cc(Cl)ccc34)c3ccccc3n2)CC1
Found: no (0)

====

Measured TGI, listed per entry.
Tested on: TK-10 renal
testMethodNotes: NCI tumour cell line growth inhibition, 48 h

{"compound": "CCN1CCN(c2nc(NCCNc3ccnc4cc(Cl)ccc34)c3ccccc3n2)CC1", "TGI": "6.02 µM"}
{"compound": "Brc1ccc2c3c1[C@@H]1O[C@@H]1c1cccc(c1-3)[C@@H]1O[C@H]21", "TGI": "> 100 µM"}
{"compound": "O=C1CSC(N2CCN(c3cccc(Cl)c3)CC2)=N1", "TGI": "> 100 µM"}

Lookup: Tell me reported TGI for C[C@]12CCC(=O)C=C1CC[C@@H]1C2CC[C@]2(C)NC(=O)C(C#N)CC12 (stereo partly specified) , tested with TK-10 renal.
Found: > 100 µM

Lookup: Here is the next compound: CC1CC(C#N)=C2NCCCCN2C1=O (stereo unspecified)
Found: > 100 µM

Lookup: What do we get for CC1=CC=CC(C)(C)CC1(O[Si](C)(C)C)C(F)(F)F (stereo unspecified) ?
Found: > 100 µM

Lookup: And the next one, COC(=O)C1CC(C=[N+](C)C)=C(SC)N1 (stereo unspecified) ?
Found: > 100 µM

Lookup: Same question for Cc1nc(Cl)c(CBr)c(Cl)n1 please.
Found: 3.68 µM

Lookup: Let us now turn to C#CC(C)(C)Oc1cc(O)c2c(=O)c3ccccc3n(C)c2c1
Found: > 100 µM

Lookup: // next record CC(=O)OCC1OC(n2c(=S)[nH]c(-c3ccccc3)c(C#N)c2=O)C(OC(C)=O)C(OC(C)=O)C1OC(C)=O (stereo unspecified)
Found: > 100 µM

Lookup: Next compound: COC(=O)[C@@H](C)C[C@H](Cc1ccccc1)NC(=O)c1nc([C@@H](C[C@H](C(C)C)N(C)C(=O)[C@@H](NC(=O)[C@H]2CCCN2C)C(C)C)OC(C)=O)sc1C
Found: > 25 µM

====

# TGI listing for each entry below
Tested on: SK-MEL-5 melanoma
testMethodNotes: NCI tumour cell line growth inhibition, 48 h
Dear colleague, please return just the value in µM, with no unit written.

{"structureSmiles": "COc1cc2c(c(OC)c1OC)-c1ccc(NCc3ccccc3)c(=O)cc1[C@@H](NC(C)=O)CC2", "measured": 1.94}

Lookup: For CNC(=O)c1cc(Oc2ccc3c(c2)sc2nc(-c4ccc(N)cc4)cn23)ccn1 , what is its reported TGI?
Found: 11.5

Lookup: Try this compound next: C[Si](C)(C)c1ccc(CC2(Cc3ccc([Si](C)(C)C)cc3)CCNC2)cc1
Found: 3.35

Lookup: Entry CC1=C2[C@@H](CC1)[C@]1(C)O[C@@](C(C)C)(C[C@H]1OC(=O)[C@H](C)O)[C@H]2OC(=O)/C=C/c1ccccc1 please
Found: 26.7

====

System: DU-145 prostate
testMethodNotes: NCI tumour cell line growth inhibition, 48 h; in the data active = GI50 below about 0.43 µM; inactive = the rest
Pick from active, inactive when you respond.

Example cases with answers are listed next.
{"structureSmiles": "N#Cc1nc(-c2ccc(F)cc2)oc1S(=O)(=O)N1CCOCC1", "testSystem": "DU-145 prostate", "classLabel": "inactive"}
{"structureSmiles": "N#Cc1c(O)c2c(c(O)c1C#N)C(=O)c1ccccc1C2=O", "testSystem": "DU-145 prostate", "classLabel": "inactive"}
{"structureSmiles": "CNC(=O)c1cc(Oc2ccc3c(c2)sc2nc(-c4ccc(N)cc4)cn23)ccn1", "testSystem": "DU-145 prostate", "classLabel": "active"}

Lookup: Entry O=C1c2ccccc2-c2c1c1cc3c(cc1c(=O)n2CCCCl)OCO3 : call = ?
Found: inactive

Lookup: Follow-up entry: COc1ccccc1NC(=O)c1ccc(/C=C/C(=O)c2nccn2C)cc1
Found: inactive

====

Tested on: DU-145 prostate
testMethodNotes: NCI tumour cell line growth inhibition, 48 h
outcomeMeasure: TGI (µM)
Field: numeric (µM). Do not append units.

Please review the entries below; each comes with its answer.
{"structureSmiles": "CN1CCN(Cc2ccc(NC(=O)c3cncc(C#Cc4cnc(N)c5ccccc45)c3)cc2C(F)(F)F)CC1", "TGI, µM": 0.678}
{"structureSmiles": "CCN1CCN(c2nc(NCCNc3ccnc4cc(Cl)ccc34)c3ccccc3n2)CC1", "TGI, µM": 9.14}
{"structureSmiles": "O=C1c2ccccc2C(=O)c2c1ccc1[nH]c(CCl)nc21", "TGI, µM": 14.5}

With those in mind, consider the next molecule.
Lookup: What does the data say about its TGI? Entry: COc1cc([C@@H]2c3cc4c(cc3C[C@H]3COC(=O)[C@@H]32)OCO4)cc(OC)c1OC
Found: 0.00914

====

System: ACHN renal
testMethodNotes: NCI tumour cell line growth inhibition, 48 h; in the data active = GI50 below about 0.43 µM; inactive = the rest
Where a SMILES comes first, the peptide text is derived from it. [ ]: non-standard residue; d: D form. The star is where a group is joined. Bn2Val = CC(C)[C@@H](C(=O)*)N(Cc1ccccc1)Cc1ccccc1; NH(3,4-diMeO-benzyl) = COc1ccc(CN*)cc1OC; NMeV = CN[C@H](C(=O)O)C(C)C; dNMeA = CN[C@H](C)C(=O)O
Give one outcome, nothing more. List: t for active, f for inactive

Answered cases to consult:
{"compound": "COc1ccc(CNC(=O)[C@@H](C)N(C)C(=O)[C@@H]2CCCN2C(=O)[C@H](C(C)C)N(C)C(=O)[C@@H](NC(=O)[C@H](C(C)C)N(Cc2ccccc2)Cc2ccccc2)C(C)C)cc1OC (Bn2Val-V[NMeV]P[dNMeA]-{NH(3,4-diMeO-benzyl)})", "classLabel": "f"}
{"compound": "CN(C)CCNc1nc2ccccc2c2[nH]c3ccccc3c12", "classLabel": "t"}
{"compound": "O=C1CSC(N2CCN(c3cccc(Cl)c3)CC2)=N1", "classLabel": "f"}
{"compound": "CC1=C2[C@@H](CC1)[C@]1(C)O[C@@](C(C)C)(C[C@H]1OC(=O)[C@H](C)O)[C@H]2OC(=O)/C=C/c1ccccc1", "classLabel": "t"}
{"compound": "Cn1c(-c2nonc2N)nc2cnccc21", "classLabel": "f"}

Lookup: Just curious, what result did O=C(O)CCCc1ccc(N(CCCl)CCCl)cc1 get here?
Found: f

Lookup: Try the compound O=C1c2ccccc2-c2c1c1cc3c(cc1c(=O)n2CCCCl)OCO3
Found: f

Lookup: What about COc1cc2c(c(OC)c1OC)-c1ccc(NCc3ccccc3)c(=O)cc1[C@@H](NC(C)=O)CC2 ?
Found: f
